Taken from PubChem BioAssay AID1445.

Attribute: inhibition
- target_or_system: Aminopeptidase N (Plasmodium falciparum (isolate 3D7))
- assay_overview: malaria alanyl aminopeptidase activity blockers – biochemical, fluorogenic H-Leu-NHMec substrate, 1536-well (AID 1445);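 note: plate controls were DMSO full reaction for no effect and no enzyme background for full effect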
- measurement_setup: recombinant M1AAP, H-Leu-NHMec fluorogenic kinetic assay; at 30 µM, stronger effect = higher value unless noted
About 910 (0.41%) of roughly 220,000 compounds were called active. The full list was thinned out, with actives kept by preference. Potency and affinity values are given separately.
The answer is to be given in %; state only the numeric part.

Would you please look over these solved cases?
COc1ccccc1N1CCN(S(=O)(=O)CC23CCC(CC2=O)C3(C)C)CC1 (stereo unspecified) ... -1.74
Cc1ccc(C2=NN(C(=O)CCCC(=O)O)C(c3ccco3)C2)cc1 (stereo unspecified) ... 7.5

-- ask Find the measured inhibition: item CCC(C)[C@H](NC(=O)NC1CC1)C(=O)O (stereo partly specified) , target or system Aminopeptidase N (Plasmodium falciparum (isolate 3D7)).
-- reply 5.68

-- ask Find the measured inhibition: item COc1ccc(C2CC(c3ccccc3)=NN2C(=O)COC(=O)C2CC2)cc1 (stereo unspecified) , target or system Aminopeptidase N (Plasmodium falciparum (isolate 3D7)).
-- reply 8.28

-- ask Find the measured inhibition: item CC(=O)N1N=C(c2ccc(C)cc2)CC1c1ccco1 (stereo unspecified) , target or system Aminopeptidase N (Plasmodium falciparum (isolate 3D7)).
-- reply 6.1

-- ask Find the measured inhibition: item `O=C(Nc1cccc(-c2cn3cccnc3n2)c1)c1ccc(Br)o1` , target or system Aminopeptidase N (Plasmodium falciparum (isolate 3D7)).
-- reply 2.48

-- ask Find the measured inhibition: item Cc1cccc(C)c1NC(=O)C1C2C=CC(C2)C1C(=O)NCc1ccccn1 (stereo unspecified) , target or system Aminopeptidase N (Plasmodium falciparum (isolate 3D7)).
-- reply 15.1

-- ask Find the measured inhibition: item CC(=O)Nc1ccc(S(=O)(=O)Oc2ccc(/C=N/N=C3/NC(=O)C(CC(=O)O)S3)cc2)cc1 (stereo unspecified) , target or system Aminopeptidase N (Plasmodium falciparum (isolate 3D7)).
-- reply 10.6

-- ask Find the measured inhibition: item COc1ccc(C2CC(c3c(-c4ccccc4)c4cc(Cl)ccc4[nH]c3=O)=NN2S(C)(=O)=O)cc1OC (stereo unspecified) , target or system Aminopeptidase N (Plasmodium falciparum (isolate 3D7)).
-- reply 13.3

-- ask Find the measured inhibition: item `Oc1[nH]c2ccccc2c1/C=N/N1CCCCC1` , target or system Aminopeptidase N (Plasmodium falciparum (isolate 3D7)).
-- reply -0.99
